- assay system: Androgen receptor (Homo sapiens) (UniProt P10275)
- Sequence (P10275 whole entry, looked up): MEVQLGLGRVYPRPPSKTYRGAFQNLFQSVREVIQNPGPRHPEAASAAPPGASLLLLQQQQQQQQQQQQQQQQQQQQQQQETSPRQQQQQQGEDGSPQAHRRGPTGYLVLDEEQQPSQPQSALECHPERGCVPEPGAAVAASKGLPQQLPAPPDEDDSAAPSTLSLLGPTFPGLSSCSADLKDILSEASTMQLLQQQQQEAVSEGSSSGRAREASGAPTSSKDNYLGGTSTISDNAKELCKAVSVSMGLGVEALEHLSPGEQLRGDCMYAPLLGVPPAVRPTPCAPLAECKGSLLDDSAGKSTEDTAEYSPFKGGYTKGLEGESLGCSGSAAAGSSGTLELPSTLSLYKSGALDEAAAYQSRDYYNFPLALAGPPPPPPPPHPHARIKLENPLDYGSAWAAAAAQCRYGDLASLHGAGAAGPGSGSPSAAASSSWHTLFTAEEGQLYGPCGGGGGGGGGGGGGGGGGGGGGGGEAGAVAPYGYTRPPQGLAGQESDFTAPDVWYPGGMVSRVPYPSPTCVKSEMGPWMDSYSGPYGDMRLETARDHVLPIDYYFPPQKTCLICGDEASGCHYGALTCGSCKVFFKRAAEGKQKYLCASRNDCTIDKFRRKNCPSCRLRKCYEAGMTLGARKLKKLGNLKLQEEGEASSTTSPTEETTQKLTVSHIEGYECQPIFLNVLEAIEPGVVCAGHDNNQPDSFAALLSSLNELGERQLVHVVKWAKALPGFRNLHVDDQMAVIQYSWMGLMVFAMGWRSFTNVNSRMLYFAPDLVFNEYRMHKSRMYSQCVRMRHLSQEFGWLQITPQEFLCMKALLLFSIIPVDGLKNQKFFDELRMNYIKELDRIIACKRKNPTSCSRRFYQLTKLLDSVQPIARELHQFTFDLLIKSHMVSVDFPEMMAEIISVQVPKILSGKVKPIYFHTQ
- test method notes: qHTS assay to identify small molecule antagonists of the androgen receptor (AR) signaling pathway (AID 743035)
- condition info: HEK293 AR-UAS-bla, R1881-stimulated, beta-lactamase FRET, 16 h; series mostly up to 58.5 µM
Inconclusive results are not listed. Activity calls are given as the source filed them. The call rests on the fitted dose curve; in most records, active means well fitted inhibition curve with a large enough effect in the signal ratio in the repeat runs (not every such curve was filed as active); inconclusive means weak or mixed curves, or effect the other way; inactive means no such curve, though single readings can be large or run the other way; the % refers to the signal ratio.
Respond using exactly one of the listed classes: active, inactive

Any idea what this test logged for "CCOc1cccc(-n2cc(C(=O)N3CCN(c4cc(C(=O)O)c5ccccc5c4)CC3)nc2-c2ccc(C)cc2)c1" ?
inactive

// param item: "C[C@H]1c2cccc(O)c2C(O)=C2C(=O)[C@]3(O)C(O)=C(C(N)=O)C(=O)[C@@H](N(C)C)[C@@H]3[C@@H](O)[C@@H]21" ; yields the recorded call
inactive

Please share the test call associated with "C[C@@H](O)[C@H]1C(=O)N2C(C(=O)O)=C([C@H]3CCCO3)S[C@H]12" .
inactive

Could you please tell me the result logged for CC(CN(C)C)C(C)(O)Cc1ccc(Cl)cc1 (stereo unspecified) in this assay?
inactive

Each compound tested received a call. Report the one for "O=C1Cc2ccccc2N1c1c(Cl)cccc1Cl" .
active

Per the assay record, what outcome was assigned to CCC(=O)C1CC(C(C)C)CC=C1C (stereo unspecified) ?
inactive

Give the logged outcome of this assay for the following compound: "O=C1c2ccccc2C(=O)C1c1ccc(Br)cc1"
inactive

Per the assay record, what outcome was assigned to CCCCCC[C@@H](O)C/C=C\CCCCCCCC(=O)OCC(O)CO (stereo partly specified) ?
inactive

Which outcome was assigned to "O=C(OC(=O)c1ccccc1)c1ccccc1" in this test?
inactive

Hi team, can someone confirm the assay call for "O=C=Nc1cccc(C(F)(F)F)c1" ?
active

What did the test return for "CCOc1ccc(Cc2nccc3cc(OCC)c(OCC)cc23)cc1OCC" ?
inactive

###

- test method notes: A CellTox Green Cytotoxicity Assay to monitor cytotoxicity in HEK293 cells - 0 hour (AID 1224869); further: nearly all actives have a fitted effect of over 50% in size
- condition info: CellTox Green fluorescence; series mostly up to 76.8 µM
The source made the active and inactive calls. Calls come from the whole dose curve; as a rule, active = well fitted activation curve with a large enough effect in the repeat runs; inconclusive = weak or mixed curves; inactive = flat fitted curve, though single readings scatter.
Give one outcome, nothing more. List: True for active, False for inactive

Entry "CCCCCCCC/C=C\CCCCCCCCO" : call = ?
False

Recorded test call requested for "Brc1cc2ccccc2c2ccccc12"
False

Fill in: this test's call for "CC(=O)Nc1cc(S(=O)(=O)O)cc2cc(S(=O)(=O)O)c(N=Nc3ccccc3)c(O)c12" is ___
False

Returns: the outcome recorded for "N#CCCN(CCO)CCO" in this assay.
False

Outcome logged for "Cc1[nH]cnc1CN1CCc2c(c3ccccc3n2C)C1=O" in this assay:
False

In this assay, the call recorded for "CCC(=O)OC" was what?
False

# lookup: test call for CCC(C)COC(C)=O (stereo not drawn)
False

Give the logged outcome of this assay for the following compound: "CC[C@]1(O)C[C@H]2CN(CCc3c([nH]c4ccccc34)[C@@](C(=O)OC)(c3cc4c(cc3OC)N(C=O)[C@H]3[C@@](O)(C(=O)OC)[C@H](OC(C)=O)[C@]5(CC)C=CCN6CC[C@]43[C@@H]65)C2)C1"
False

So what was the verdict on "CC(=O)Nc1ccc(C)cc1C" in this test?
False

Any idea what this test logged for "C=C(C)[C@@H]1CCC2=CCC[C@@H](C)[C@]2(C)C1" ?
False

Given "O=C(OC(=O)c1ccccc1)c1ccccc1" , state the outcome it received in this test.
False

Per the records of this test, what outcome belongs to "O=C(CCCN1CC=C(n2c(=O)[nH]c3ccccc32)CC1)c1ccc(F)cc1" ?
False

# lookup: test call for "CC=C(Cl)Cl"
False

How did this test come out for "CCOC(=O)c1ccccc1C(=C1C=C(Br)C(=O)C(Br)=C1)c1cc(Br)c(O)c(Br)c1" ?
False

Recorded test outcome, item "OC[C@H]1O[C@@H](n2cnc3c(=S)nc[nH]c32)[C@H](O)[C@@H]1O"
False

Each compound tested received a call. Report the one for "Cc1cc(=O)c2c(O)c3c(O)cc(=O)c4c3c3c(cc(O)c1c23)C(C)(C)C=4O" .
True

Recorded test outcome, item "NNC(=O)CP(=O)(c1ccccc1)c1ccccc1"
False

Assay result, entry "Oc1cccc(O)c1O" — outcome?
False
